# measurement_description: MTT cytotoxicity against normal cells
# Format: cell-based, human
# condition_set: human, HEK-293 cells (normal human embryonic kidney); HEK-293, 0.313 umol/ml
recorded_metric: viability at 3 days, 0.313 umol/ml (%)
Numbers only, in %.

Determine from records and report viability at 3 days, 0.313 umol/ml for CNC(=O)c1cc(Oc2ccc(NC(=O)Nc3ccc(Cl)c(C(F)(F)F)c3)cc2)ccn1 [Sorafenib, sorafenib, reference compound]
30.9

###

# study_target: EGFR (Homo sapiens, UniProt P00533)
# Sequence (P00533 25-1210): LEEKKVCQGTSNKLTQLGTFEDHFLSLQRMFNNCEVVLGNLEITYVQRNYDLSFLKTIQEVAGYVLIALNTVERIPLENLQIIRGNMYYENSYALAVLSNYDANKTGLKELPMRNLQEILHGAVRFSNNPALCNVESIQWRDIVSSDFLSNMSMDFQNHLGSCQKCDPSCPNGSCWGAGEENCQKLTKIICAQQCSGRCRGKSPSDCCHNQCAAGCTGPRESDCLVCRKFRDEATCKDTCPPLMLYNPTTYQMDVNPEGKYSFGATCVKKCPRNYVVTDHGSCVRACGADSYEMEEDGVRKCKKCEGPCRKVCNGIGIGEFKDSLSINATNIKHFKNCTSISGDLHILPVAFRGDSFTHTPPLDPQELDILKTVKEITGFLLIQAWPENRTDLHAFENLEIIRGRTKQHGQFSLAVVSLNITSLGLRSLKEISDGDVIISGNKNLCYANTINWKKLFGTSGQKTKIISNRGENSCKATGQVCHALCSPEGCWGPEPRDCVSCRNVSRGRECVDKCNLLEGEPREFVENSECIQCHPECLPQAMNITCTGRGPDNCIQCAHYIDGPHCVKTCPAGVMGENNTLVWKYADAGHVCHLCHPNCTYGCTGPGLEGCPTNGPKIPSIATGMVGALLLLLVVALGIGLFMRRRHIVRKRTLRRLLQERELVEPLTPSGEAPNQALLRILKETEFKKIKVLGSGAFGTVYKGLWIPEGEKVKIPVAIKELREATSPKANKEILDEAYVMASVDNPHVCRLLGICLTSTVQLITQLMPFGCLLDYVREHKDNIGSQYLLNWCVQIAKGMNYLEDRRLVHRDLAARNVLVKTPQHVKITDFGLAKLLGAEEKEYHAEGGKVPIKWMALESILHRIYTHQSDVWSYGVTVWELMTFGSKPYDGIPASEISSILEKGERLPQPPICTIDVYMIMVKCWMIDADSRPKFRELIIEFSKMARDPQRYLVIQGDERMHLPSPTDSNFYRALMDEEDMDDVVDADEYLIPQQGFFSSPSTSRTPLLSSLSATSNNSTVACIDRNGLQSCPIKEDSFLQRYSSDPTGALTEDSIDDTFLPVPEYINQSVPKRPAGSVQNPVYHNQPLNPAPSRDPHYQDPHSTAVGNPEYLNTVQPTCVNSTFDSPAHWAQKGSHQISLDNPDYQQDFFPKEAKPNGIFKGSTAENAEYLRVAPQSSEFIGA
# measurement_description: EGFR kinase inhibition assay (ELISA kit)
# condition_set: MCF7
Provide the recorded Inhibition % for the entries that follow.
Give bare numbers, in %.

# compound, numeric_result
measured = [
    ("O=C(Cn1cnc2cc([N+](=O)[O-])ccc2c1=O)Nc1ccccc1 [9a]", 80.437),
]

Record Inhibition % for all entries; do not skip any.
1. O=C(Cn1cnc2cc(Cl)ccc2c1=O)Nc1ccccc1 [8a]
2. O=C(Cn1cnc2cc(Cl)ccc2c1=O)Nc1ccccc1Cl [8b]

[79.758, 81.264]

Quote Inhibition % reported for O=C(Cn1cnc2cc([N+](=O)[O-])ccc2c1=O)Nc1ccccc1Cl [9b] please.
74.708

###

# Tested on: MCF-7
# measurement_description: MTT anti-proliferative assay, MCF-7
# Type: cell-based, human
# condition_set: Homo sapiens, MCF7; MCF-7, 3.125 umol
recorded_metric: viability at 3.125 µmol (%)
Numbers only, in %.

# molecule_smiles, study_target, endpoint_unit, numeric_result
measured = [
    ("O=C(Cn1cnc2cc([N+](=O)[O-])ccc2c1=O)Nc1ccc(Cl)cc1", "MCF-7", "%", 15.2),
    ("O=C(Cn1cnc2cc([N+](=O)[O-])ccc2c1=O)Nc1ccccc1Cl", "MCF-7", "%", 9.45),
    ("O=C(Cn1cnc2cc(Cl)ccc2c1=O)Nc1ccccc1Cl", "MCF-7", "%", 9.81),
    ("O=C(Cn1cnc2cc(Cl)ccc2c1=O)Nc1ccc(Cl)cc1", "MCF-7", "%", 10.2),
    ("O=C(Cn1cnc2cc(Cl)ccc2c1=O)Nc1ccc(F)c(Cl)c1", "MCF-7", "%", 12.8),
    ("O=C(Cn1cnc2cc([N+](=O)[O-])ccc2c1=O)Nc1ccccc1", "MCF-7", "%", 9.94),
]

Please go through the list and note viability at 3.125 µmol for each molecule.
1. O=C(Cn1cnc2cc([N+](=O)[O-])ccc2c1=O)Nc1ccc(F)c(Cl)c1
2. O=C(Cn1cnc2cc(Cl)ccc2c1=O)Nc1ccccc1

[9.89, 17.8]

###

# study_target: EGFR (Homo sapiens, UniProt P00533)
# measurement_description: EGFR kinase inhibition assay (ELISA kit)
# condition_set: HepG2
recorded_metric: Activity % (%)
One number for each entry, in %.

Known Activity % results, listed for orientation:
# compound, endpoint_unit, Activity %
records = [
    ("O=C(Cn1cnc2cc([N+](=O)[O-])ccc2c1=O)Nc1ccccc1Cl [9b]", "%", 52.262),
    ("O=C(Cn1cnc2cc([N+](=O)[O-])ccc2c1=O)Nc1ccccc1 [9a]", "%", 16.297),
    ("O=C(Cn1cnc2cc(Cl)ccc2c1=O)Nc1ccccc1 [8a]", "%", 16.790),
]

Given the compound O=C(Cn1cnc2cc(Cl)ccc2c1=O)Nc1ccccc1Cl [8b] , write its reported Activity %.
16.278

###

# System: caspase-9
# measurement_description: Caspase-9 expression level in HepG-2 cells
# Format: cell-based, human
# condition_set: HepG-2, at IC50 concentrations; control 11.01
Record form. Attribute: Caspase-9 ± SE. Fill in for each entry.
One number for each entry, in ng/L.

# molecule_smiles, numeric_result
rows = [
    ("O=C(Cn1cnc2cc([N+](=O)[O-])ccc2c1=O)Nc1ccccc1", 30.57),
    ("O=C(Cn1cnc2cc(Cl)ccc2c1=O)Nc1ccc(Cl)cc1", 26.98),
]

# input for lookup
Consider the compound O=C(Cn1cnc2cc([N+](=O)[O-])ccc2c1=O)Nc1ccc(F)c(Cl)c1 and give its recorded Caspase-9 ± SE.
25.20

###

# measurement_description: MTT cytotoxicity against normal cells
# Assay type: cell-based, human
# condition_set: human, HEK-293 cells (normal human embryonic kidney cells); MTT, HEK-293; read-out: Cytotoxicity against normal cell IC50 HEK-293
recorded_metric: IC50 at 3 days (nM)
One number for each entry, in nM.

Name the recorded IC50 at 3 days of the item O=C(Cn1cnc2cc([N+](=O)[O-])ccc2c1=O)Nc1ccccc1Cl in your answer.
1750

###

# Test system: HepG-2
# measurement_description: MTT anti-proliferative assay, HepG-2
# Assay type: cell-based, human
# condition_set: Homo sapiens, HepG2; HepG-2, 0.391 ug/ml
So I've got a bunch of molecules here, and I need their viability at 0.391 µg/mL values.
Answers are plain numbers, in %.

Here are 5 molecules. What values of viability at 0.391 µg/mL were reported for them?
1. O=C(Cn1cnc2cc([N+](=O)[O-])ccc2c1=O)Nc1ccc(Cl)cc1
2. O=C(Cn1cnc2cc(Cl)ccc2c1=O)Nc1ccc(F)c(Cl)c1
3. O=C(Cn1cnc2cc([N+](=O)[O-])ccc2c1=O)Nc1ccccc1Cl
4. O=C(Cn1cnc2cc(Cl)ccc2c1=O)Nc1ccc(Cl)cc1
5. O=C(Cn1cnc2cc([N+](=O)[O-])ccc2c1=O)Nc1ccc(F)c(Cl)c1

1: 70.3; 2: 75.6; 3: 37.3; 4: 65.9; 5: 63.9

Give viability at 0.391 µg/mL for all molecules that follow.
1. O=C(Cn1cnc2cc(Cl)ccc2c1=O)Nc1ccccc1Cl
2. O=C(Cn1cnc2cc([N+](=O)[O-])ccc2c1=O)Nc1ccccc1
3. O=C(Cn1cnc2cc(Cl)ccc2c1=O)Nc1ccccc1

1. 33.3
2. 29.7
3. 26.4

###

# study_target: EGFR (Homo sapiens, UniProt P00533)
# measurement_description: EGFR kinase inhibition assay (ELISA kit)
# condition_set: K-562
Assign Inhibition % to each entry below.

Examples from the recorded data:
# compound, study_target, recorded_metric, result
records = [
    ("O=C(Cn1cnc2cc([N+](=O)[O-])ccc2c1=O)Nc1ccccc1 [9a]", "EGFR (Homo sapiens, UniProt P00533)", "Inhibition %", "78.046%"),
    ("O=C(Cn1cnc2cc([N+](=O)[O-])ccc2c1=O)Nc1ccccc1Cl [9b]", "EGFR (Homo sapiens, UniProt P00533)", "Inhibition %", "52.544%"),
    ("O=C(Cn1cnc2cc(Cl)ccc2c1=O)Nc1ccccc1 [8a]", "EGFR (Homo sapiens, UniProt P00533)", "Inhibition %", "66.098%"),
]

Fill in reported Inhibition % for this entry: O=C(Cn1cnc2cc(Cl)ccc2c1=O)Nc1ccccc1Cl [8b]
82.695%

###

# System: HepG-2
# measurement_description: MTT anti-proliferative assay, HepG-2
# Assay type: cell-based, human
# condition_set: Homo sapiens, HepG2; HepG-2, 0.195 ug/ml
Criterion: viability at 0.195 µg/mL strictly less than 50%. Met: fulfilled. Not met: not fulfilled.

# molecule_smiles, category
rows = [
    ("O=C(Cn1cnc2cc(Cl)ccc2c1=O)Nc1ccccc1Cl", "not fulfilled"),
    ("O=C(Cn1cnc2cc(Cl)ccc2c1=O)Nc1ccc(Cl)cc1", "not fulfilled"),
    ("O=C(Cn1cnc2cc([N+](=O)[O-])ccc2c1=O)Nc1ccc(F)c(Cl)c1", "not fulfilled"),
]

We next turn to a different molecule, shown below.
For O=C(Cn1cnc2cc(Cl)ccc2c1=O)Nc1ccccc1 , is the recorded viability at 0.195 µg/mL below the cut-off of 50%?
fulfilled

###

# Test system: TNF-alpha
# measurement_description: TNF-alpha level in HepG-2 cells
# Type: cell-based, human
# condition_set: HepG-2, at IC50 concentrations; control 43.48
recorded_metric: TNF-alpha ±SE (ng/L)
Give bare numbers, in ng/L.

Solved cases (5 shown):
# molecule_smiles, TNF-alpha ±SE / ng/L
data = [
    ("O=C(Cn1cnc2cc(Cl)ccc2c1=O)Nc1ccccc1Cl", 23.47),
    ("O=C(Cn1cnc2cc(Cl)ccc2c1=O)Nc1ccc(F)c(Cl)c1", 32.07),
    ("O=C(Cn1cnc2cc([N+](=O)[O-])ccc2c1=O)Nc1ccccc1", 23.6),
    ("O=C(Cn1cnc2cc([N+](=O)[O-])ccc2c1=O)Nc1ccccc1Cl", 27.34),
    ("O=C(Cn1cnc2cc(Cl)ccc2c1=O)Nc1ccccc1", 14.37),
]

// for each molecule in input: emit TNF-alpha ±SE
1. O=C(Cn1cnc2cc([N+](=O)[O-])ccc2c1=O)Nc1ccc(Cl)cc1
2. O=C(Cn1cnc2cc([N+](=O)[O-])ccc2c1=O)Nc1ccc(F)c(Cl)c1
3. O=C(Cn1cnc2cc(Cl)ccc2c1=O)Nc1ccc(Cl)cc1

1: 16.86; 2: 34.27; 3: 9.13
